Where these numbers come from: PubChem BioAssay AID1919016

Test system: NCI-H196 complex spheroid growth, percent test/control
Experiment: Anticancer human tumor NCI-H196 cell line growth inhibition [AhR];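 note: seven days of drug exposure starting three days after plating; 100% = DMSO vehicle control wells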
Conditions: second compound 0.1 µM; first compound 0.000949 µM; stronger effect = lower value
Outcome measure: viability, T/C (%)
The response must be a number in % with no trailing unit.

Example cases with answers are listed next.
Compound: CCc1c2c(nc3ccc(O)cc13)-c1cc3c(c(=O)n1C2)COC(=O)[C@]3(O)CC + Cc1ccccc1N=Nc1ccc(NC(=O)c2ccnn2C)c(C)c1
Unit of measurement: %
Endpoint result: 97

Compound: Nc1ncn(C2CC(O)C(CO)S2)c(=O)n1 (stereo unspecified) + CC(CO)NC(=O)c1cc(-c2ccc(Cl)cc2)nn(-c2cnn(C)c2)c1=O
Unit of measurement: %
Endpoint result: 104

Compound: CC(C)CC(NC(=O)C(Cc1ccccc1)NC(=O)c1cnccn1)B(O)O (stereo unspecified) + CC(CO)NC(=O)c1cc(-c2ccc(Cl)cc2)nn(-c2cnn(C)c2)c1=O
Unit of measurement: %
Endpoint result: 108

Query: Which measured viability, T/C belongs to CC(C)CC(NC(=O)C(Cc1ccccc1)NC(=O)c1cnccn1)B(O)O (stereo unspecified) + Cc1cncc(-c2nc(NCCc3c[nH]c4ccccc34)c3ncn(C(C)C)c3n2)c1 , tested on NCI-H196 complex spheroid growth, percent test/control?
Response: 98.2

Query: // query: CCc1c2c(nc3ccc(O)cc13)-c1cc3c(c(=O)n1C2)COC(=O)[C@]3(O)CC + Cc1cncc(-c2nc(NCCc3c[nH]c4ccccc34)c3ncn(C(C)C)c3n2)c1
Response: 99.9

Query: Try Nc1ncn(C2CC(O)C(CO)S2)c(=O)n1 (stereo unspecified) + Cc1ccccc1N=Nc1ccc(NC(=O)c2ccnn2C)c(C)c1 next.
Response: 95

----------
System: NCI-H196 complex spheroid growth, percent test/control
Test: Anticancer human tumor NCI-H196 cell line growth inhibition [AhR];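 note: seven days of drug exposure starting three days after plating; 100% = DMSO vehicle control wells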
Conditions: second compound 0.1 µM; first compound 0.03 µM; stronger effect = lower value
# reported viability, T/C; entries follow
Give the value in % but do not write % after it.

Some compounds with known viability, T/C results, for comparison:
Compound: O=C(C=Cn1cnc(-c2cc(C(F)(F)F)cc(C(F)(F)F)c2)n1)NNc1cnccn1 + Cc1ccccc1N=Nc1ccc(NC(=O)c2ccnn2C)c(C)c1
Unit of measurement: %
viability, T/C: 54.5

Compound: CCc1c2c(nc3ccc(O)cc13)-c1cc3c(c(=O)n1C2)COC(=O)[C@]3(O)CC + Cc1cncc(-c2nc(NCCc3c[nH]c4ccccc34)c3ncn(C(C)C)c3n2)c1
Unit of measurement: %
viability, T/C: 102

Compound: O=C(C=Cn1cnc(-c2cc(C(F)(F)F)cc(C(F)(F)F)c2)n1)NNc1cnccn1 + CC(CO)NC(=O)c1cc(-c2ccc(Cl)cc2)nn(-c2cnn(C)c2)c1=O
Unit of measurement: %
viability, T/C: 71.1

Compound: CCN(c1cc(-c2ccc(CN3CCOCC3)cc2)cc(C(=O)NCc2c(C)cc(C)[nH]c2=O)c1C)C1CCOCC1 + Cc1cncc(-c2nc(NCCc3c[nH]c4ccccc34)c3ncn(C(C)C)c3n2)c1
Unit of measurement: %
viability, T/C: 97.3

Query: For the compound CCN(c1cc(-c2ccc(CN3CCOCC3)cc2)cc(C(=O)NCc2c(C)cc(C)[nH]c2=O)c1C)C1CCOCC1 + Cc1ccccc1N=Nc1ccc(NC(=O)c2ccnn2C)c(C)c1 , what viability, T/C is on record?
Response: 104

Query: Again, but for Nc1ncn(C2CC(O)C(CO)S2)c(=O)n1 (configuration not stated) + CC(CO)NC(=O)c1cc(-c2ccc(Cl)cc2)nn(-c2cnn(C)c2)c1=O
Response: 108
